- Subject Of Test: TRAF6/Uev1A/Ubc13 (Homo sapiens)
- Sequence (Q9Y4K3 1-522): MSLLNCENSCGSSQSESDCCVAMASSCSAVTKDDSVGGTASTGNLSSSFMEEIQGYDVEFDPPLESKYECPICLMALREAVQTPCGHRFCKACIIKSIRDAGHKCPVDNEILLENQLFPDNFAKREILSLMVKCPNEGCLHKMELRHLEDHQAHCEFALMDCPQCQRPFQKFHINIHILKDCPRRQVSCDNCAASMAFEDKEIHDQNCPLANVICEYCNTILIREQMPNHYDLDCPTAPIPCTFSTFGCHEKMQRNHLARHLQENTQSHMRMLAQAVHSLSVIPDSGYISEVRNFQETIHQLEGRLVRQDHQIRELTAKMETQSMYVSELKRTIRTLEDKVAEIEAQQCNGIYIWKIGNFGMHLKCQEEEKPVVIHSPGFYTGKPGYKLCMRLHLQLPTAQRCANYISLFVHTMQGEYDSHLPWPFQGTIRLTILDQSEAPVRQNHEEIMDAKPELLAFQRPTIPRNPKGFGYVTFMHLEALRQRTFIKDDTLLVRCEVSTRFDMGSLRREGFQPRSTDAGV
- Test Description: TRAF6/Uev1A/Ubc13 plate-based ubiquitin ligase assay
Endpoint Name: IC50

Smiles Repr | Subject Of Test | IC50
CC(C)(C)c1ccc(-c2ccc([N+](=O)[O-])c3nonc23)cc1 | TRAF6/Uev1A/Ubc13 (Homo sapiens) | 1 to 20 µM
O=S(=O)(Nc1cccc(F)c1)c1ccc(F)c2nonc12 | TRAF6/Uev1A/Ubc13 (Homo sapiens) | ≥ 20 µM
COc1ccccc1NS(=O)(=O)c1ccc(Cl)c2nonc12 | TRAF6/Uev1A/Ubc13 (Homo sapiens) | ≥ 20 µM
O=S(=O)(c1cccc2nonc12)N1CCC(Oc2ncccn2)CC1 | TRAF6/Uev1A/Ubc13 (Homo sapiens) | ≥ 20 µM
Cc1cccc(N2CCN(S(=O)(=O)c3ccc(Sc4cccc5cccnc45)c4nonc34)CC2)n1 | TRAF6/Uev1A/Ubc13 (Homo sapiens) | 1 to 20 µM

Data request, read-out IC50, for "Cc1cccc(N2CCN(S(=O)(=O)c3c(Cl)ccc4nonc34)CC2)n1" ≥ 20 µM

Another compound to look at: "Nc1cccc2c(NS(=O)(=O)c3ccc(N4CCOCC4)c4nonc34)cccc12" ≥ 20 µM

Okay, and "O=S(=O)(Nc1cccc2cnccc12)c1cccc2nonc12" ? ≥ 20 µM

Entry to check: "O=c1[nH]c2ccccc2n1C1CCN(S(=O)(=O)c2ccc(Sc3cccc4cccnc34)c3nonc23)CC1" 1 to 20 µM
